# System: S180 ascites
# assay explanation: Anti-tumor evaluation against S180 ascites in mice (% increase in life span, survivors)
# Format: in vivo, female CFW Swiss mice
# stated conditions: S 180 ascites; 160 mg/kg
test readout: % ILS (%)

>>> print(df.to_string())
                               entry_smiles  experimental_target  test_readout  value_measured
0        Cn1cc[n+]([Au-]([Cl])([Cl])[Cl])c1         S180 ascites         % ILS             -93
1        [Cl][Au-]([Cl])([Cl])[n+]1cc[nH]c1         S180 ascites         % ILS              37
2        Cn1cc[n+]([Au-]([Br])([Br])[Br])c1         S180 ascites         % ILS             -94
3               [Cl][Au]([Cl])[Cl].c1ccncc1         S180 ascites         % ILS             -94
4  CC(=O)c1ccc[n+]([Au-]([Cl])([Cl])[Cl])c1         S180 ascites         % ILS              23
